# tested-target: human mu opioid receptor (human, UniProt P35372 1-400)
# Sequence (P35372 whole entry): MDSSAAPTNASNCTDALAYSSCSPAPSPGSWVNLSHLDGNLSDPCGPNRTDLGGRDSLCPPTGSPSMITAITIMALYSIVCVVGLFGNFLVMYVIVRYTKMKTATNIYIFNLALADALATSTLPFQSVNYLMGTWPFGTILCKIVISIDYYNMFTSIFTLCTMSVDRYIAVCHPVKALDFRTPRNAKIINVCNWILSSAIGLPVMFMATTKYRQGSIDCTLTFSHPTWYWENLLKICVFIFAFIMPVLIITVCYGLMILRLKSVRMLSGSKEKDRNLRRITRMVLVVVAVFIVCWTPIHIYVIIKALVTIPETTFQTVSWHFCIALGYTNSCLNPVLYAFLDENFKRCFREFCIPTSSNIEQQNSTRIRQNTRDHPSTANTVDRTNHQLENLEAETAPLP
# assay-method-text: cell-based or functional assay
No end group written: not given here.
metric: Agonist EC50, mu (35S-GTPγS) (nM)
Give bare numbers, in nM.

# input Identify measured Agonist EC50, mu (35S-GTPγS) corresponding to YPFF-NH2 (Natural endogenous tetrapeptide amide; also called EM2) [endomorphin-2 (Tyr-Pro-Phe-Phe-NH2)]
# output 8.44
